Test system: ragweed (common ragweed, Ambrosia elatior)
Assay: Test B pre-/postemergence plant response
Assay type: in vivo
Details: Postemergence, 62 g ai/ha; scale 0 (no effect) to 100 (complete control); 13 to 15 days
Exercise: for every item that follows, state its recorded Plant response rating, Ragweed.
Answer as a number with no unit attached.

Indicate its recorded Plant response rating, Ragweed; the compound in question is O=C1CCCC([O-])=C1C(=O)c1cnc(-c2ccccc2)n(-c2ccccc2)c1=O.[K+] [Compound 14]
80

For the compound Cc1cccc(-n2c(-c3ccccc3)ncc(C(=O)C3=C(O)CCCC3=O)c2=O)c1C [Compound 27] , give its reported Plant response rating, Ragweed.
98

Dear colleague, please send me the reported Plant response rating, Ragweed for O=C1CCCC(O)=C1C(=O)c1cnc(-c2cccs2)n(-c2ccccc2)c1=O [Compound 66] when you can.
10

Dear colleague, please send me the reported Plant response rating, Ragweed for Cc1cc(F)ccc1-n1c(-c2ccccc2)ncc(C(=O)C2=C(O)CCCC2=O)c1=O [Compound 48] when you can.
85

---

Please respond with reported Plant response rating, Pigweed for every item in the list.
System: pigweed (Amaranthus retroflexus)
Assay: Test B pre-/postemergence plant response
Format: in vivo
Settings: Preemergence, 125 g ai/ha; scale 0 to 100, 0 no effect, 100 complete control
# answer = number (no unit)

// fetch Plant response rating, Pigweed given entry CCCCn1c(CCC)ncc(C(=O)C2=C(O)CCCC2=O)c1=O [Compound 75]
100

Given CCCc1ncc(C(=O)C2=C(O)CCCC2=O)c(=O)n1-c1ccccc1 [Compound 217] , respond with its Plant response rating, Pigweed.
100

Note Plant response rating, Pigweed for the compound shown: CCCCn1c(C2CC2)ncc(C(=O)C2=C(O)CCCC2=O)c1=O [Compound 193]
100

Give the reported Plant response rating, Pigweed for this compound. CCc1cccc(-n2c(-c3ccccc3)ncc(C(=O)C3=C(O)CCCC3=O)c2=O)c1 [Compound 220]
100

// Input: O=C1CCCC(O)=C1C(=O)c1cnc(-c2cccs2)n(-c2ccccc2)c1=O [Compound 66] . Output its Plant response rating, Pigweed only.
98

---

System: goosegrass (Eleusine indica)
Experiment: Test B pre-/postemergence plant response
Assay type: in vivo
Details: Postemergence, 250 g ai/ha; scale 0 to 100 (0 no effect, 100 complete control)
outcomeMeasure: Plant response rating, Goosegrass
Just the number, please, no unit attached.

Assign Plant response rating, Goosegrass to the following record: O=C1CCCC(O)=C1C(=O)c1cnc(-c2ccc(Br)cc2)n(-c2ccccc2)c1=O [Compound 70]
95

Return Plant response rating, Goosegrass for the following compound: CCCCCCn1c(-c2ccccc2)ncc(C(=O)C2=C(O)CCCC2=O)c1=O [Compound 94]
85

Supply measured Plant response rating, Goosegrass of Cc1cccc(-n2c(-c3ccccc3)ncc(C(=O)C3=C(O)CCCC3=O)c2=O)c1F [Compound 58] in your reply.
90

Retrieve Plant response rating, Goosegrass measured for CCCn1c(-c2cccc(OC)c2)ncc(C(=O)C2=C(O)CCCC2=O)c1=O [Compound 100] and print it.
75

---

Please go through the items and note down their Plant response rating, Foxtail, Green.
Test system: green foxtail (Setaria viridis)
Assay: Test B pre-/postemergence plant response
Assay type: in vivo
Details: Preemergence, 31 g ai/ha; scale 0 to 100 (0 no effect, 100 complete control)
Could you respond with only the numeric value?

Indicate the recorded Plant response rating, Foxtail, Green value for this compound: `O=C1CCCC(O)=C1C(=O)c1cnc(-c2cccs2)n(-c2ccccc2)c1=O`
0

Answer with reported Plant response rating, Foxtail, Green of COCCCn1c(-c2cc(F)cc(F)c2)ncc(C(=O)C2=C(O)C3CCC(C3)C2=O)c1=O (stereo not shown)
0

Provide Plant response rating, Foxtail, Green value for the following compound: `CCCCn1c(C2CC2)ncc(C(=O)C2=C(O)CCCC2=O)c1=O`
5

Indicate the recorded Plant response rating, Foxtail, Green value for this compound: `CCCc1ncc(C(=O)C2=C(O)CCCC2=O)c(=O)n1CCC`
0

// fetch Plant response rating, Foxtail, Green given entry `Cc1cc(F)ccc1-n1c(-c2ccccc2)ncc(C(=O)C2=C(O)CCCC2=O)c1=O`
60

Could you please provide reported Plant response rating, Foxtail, Green for `CCCCn1c(CCC)ncc(C(=O)C2=C(O)CCCC2=O)c1=O` ? Thanks!
5

Answer with the recorded Plant response rating, Foxtail, Green for the compound listed here: `Cc1ccc(C)c(-n2c(-c3ccccc3)ncc(C(=O)C3=C(O)CCCC3=O)c2=O)c1`
0
